Data provenance is patent US20240132431A1.

- System under test: Bcl-2 protein (Recombinant Human Bcl-2 Protein) (Homo sapiens, UniProt P10415)
- Construct: purchased Novus NBP2-34889
- Sequence (P10415 whole entry): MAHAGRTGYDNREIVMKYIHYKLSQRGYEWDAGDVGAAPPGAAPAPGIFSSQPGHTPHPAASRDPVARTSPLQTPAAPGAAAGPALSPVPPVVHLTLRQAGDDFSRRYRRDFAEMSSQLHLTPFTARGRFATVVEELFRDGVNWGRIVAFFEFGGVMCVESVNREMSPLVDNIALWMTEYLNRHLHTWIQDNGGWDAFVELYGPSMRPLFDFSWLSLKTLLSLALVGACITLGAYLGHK
- Test description: Binding evaluation of mixture library compounds to Bcl-2 using AS-MS (affinity selection mass spectrometry)
- Particulars: n = 1
Measured quantity: ASMS ratio (%)

Example results:
[
  {
    "Given smiles": "CCOc1cccc(-c2ccc(CN3CCN(c4ccc(C(=O)NS(=O)(=O)CCC(F)(F)F)nn4)CC3)c(OC)c2)c1",
    "ASMS ratio (%)": 0.0
  },
  {
    "Given smiles": "CCOc1cncc(-c2ccc(CN3CCN(c4ccc(C(=O)NS(=O)(=O)c5ccc(NCCSc6ccccc6)c(C(F)(F)F)c5)cc4)CC3)cc2F)c1",
    "ASMS ratio (%)": 0.0
  },
  {
    "Given smiles": "CCOc1cncc(-c2cc(CN3CCN(c4ccc(C(=O)NS(=O)(=O)C(C)(C)C)cc4)CC3)cc(OC(F)(F)F)c2)c1",
    "ASMS ratio (%)": 0.0
  },
  {
    "Given smiles": "CCOc1cccc(-c2csc(CN3CCN(c4ccc(C(=O)NS(=O)(=O)c5ccc(NCCSc6ccccc6)c(C(F)(F)F)c5)cc4)CC3)c2)c1",
    "ASMS ratio (%)": 8.0
  },
  {
    "Given smiles": "CCOc1cncc(-c2cc(CN3CCN(c4ccc(C(=O)NS(C)(=O)=O)cc4)CC3)cc(OC(F)(F)F)c2)c1",
    "ASMS ratio (%)": 0.0
  },
  {
    "Given smiles": "CCOc1cccc(-c2cc(C(=O)N3CCN(c4ccc(C(=O)NS(=O)(=O)c5ccc(NCCSc6ccccc6)c(C(F)(F)F)c5)nn4)CC3)cc(C(F)(F)F)c2)c1",
    "ASMS ratio (%)": 32.9
  }
]

P = CCOc1cccc(-c2ccc(C(=O)N3CCN(c4ccc(C(=O)NS(=O)(=O)CCC(F)(F)F)cc4)CC3)cc2C)c1
Q = CCOc1cncc(-c2cc(CN3CCN(c4ccc(C(=O)NS(=O)(=O)c5ccc(NCCSc6ccccc6)c(C(F)(F)F)c5)nn4)CC3)cc(OC(F)(F)F)c2)c1
**Q:** // select label with min value of measured ASMS ratio (%) from [ P , Q ] Selection: enter the item's label.
**A:** P
(P: 0.0%, Q: 22.4%)

A = CCOc1cccc(-c2cc(C(=O)N3CCN(c4ccc(C(=O)NS(=O)(=O)C(C)(C)C)cc4)CC3)cc(C(C)(C)C)c2)c1
B = CCOc1cccc(-c2cc(CN3CCN(c4ccc(C(=O)NS(C)(=O)=O)cc4)CC3)cc(OC(F)(F)F)c2)c1
**Q:** Recorded ASMS ratio (%) values differ for A and B ; which one is higher? Choose, then provide that item's label.
**A:** B

* * *

- System under test: Bcl-2 protein (Recombinant Human Bcl-2 Protein) (Homo sapiens, UniProt P10415)
- Construct: purchased Novus NBP2-34889
- Test description: Binding evaluation of mixture library compounds to Bcl-2 using AS-MS (affinity selection mass spectrometry)
- Particulars: n = 2
Measured quantity: ASMS ratio (%)

For orientation, consider the following solved cases.
[
  {
    "Given smiles": "CCOc1cccc(-c2cc(C(=O)N3CCN(c4ccc(C(=O)NS(=O)(=O)c5ccc(NCCSc6ccccc6)c(C(F)(F)F)c5)cc4)CC3)cc(C(F)(F)F)c2)c1",
    "Readout unit": "%",
    "ASMS ratio (%)": "−4.8"
  },
  {
    "Given smiles": "CCOc1cccc(-c2ccc(CN3CCN(c4ccc(C(=O)NS(C)(=O)=O)nn4)CC3)cc2C)c1",
    "Readout unit": "%",
    "ASMS ratio (%)": 0.0
  },
  {
    "Given smiles": "CCOc1cncc(-c2cc(CN3CCN(c4ccc(C(=O)NS(=O)(=O)CCC(F)(F)F)nn4)CC3)cc(C(F)(F)F)c2)c1",
    "Readout unit": "%",
    "ASMS ratio (%)": 0.0
  }
]

I = CCOc1cccc(-c2ccccc2CN2CCN(c3ccc(C(=O)NS(C)(=O)=O)cc3)CC2)c1
II = CCOc1cncc(C#Cc2ccccc2CN2CCN(c3ccc(C(=O)NS(C)(=O)=O)cc3)CC2)c1
III = CCOc1cncc(C#Cc2cncc(C(=O)N3CCN(c4ccc(C(=O)NS(=O)(=O)CCC(F)(F)F)cc4)CC3)c2)c1
**Q:** Please order the records by their reported ASMS ratio (%), lowest number first. Return value: ordered labels per request.
**A:** III, II, I
